# mean nematode size ln(EXT) (ln) values compiled below
Tested on: Caenorhabditis elegans N2
Measurement notes: mean nematode size ln(EXT) after 48 h, plate-adjusted (DMSO control set to 6) (ln(EXT), control-adjusted); higher = larger nematodes / less growth inhibition
Condition label: 0.5 µM; exposure time 48 h
Parameter: mean nematode size ln(EXT) (ln)

Compound | Numeric readout
O=S(=O)(O)c1ccc(N=Nc2c(O)ccc3cc(S(=O)(=O)O)ccc23)cc1 | 5.95
Clc1cccc(C(Cl)(Cl)Cl)n1 | 5.36
C[C@H](O)CCO | 5.92
CC1(C)C(C=C(Cl)Cl)C1C(=O)OCc1cccc(Oc2ccccc2)c1 (stereo unspecified) | 5.91
C1CC2OC2CC1C1CO1 (mixture of isomers) [Vinylcyclohexene dioxide, mixture of isomers] | 5.91
Cc1ccc(N)cc1 | 5.89
CCCC(=O)OCC [Ethyl butyrate] | 5.9
c1ccc2c(c1)-c1cccc3cccc-2c13 | 5.79
Cc1ccc(N)c(N)c1 | 5.97
c1ccc(/N=N/c2ccccc2)cc1 | 5.73
CN=C=S [Methyl isothiocyanate] | 6.14
